test: S. cerevisiae growth modulation with rapamycin, primary screen, strain BY4716, OD600, 96 h (AID 1091); conditions: higher = more signal, called active from +8 up or from −8 down; further: test concentration not given here
The label depends only on z-score: met if it is at least -0.3, not met if it is smaller.

Would you please look over these solved cases?
{"columns": ["MOLECULE", "LABEL_VALUE"],
 "data": [
  ["COC(=O)C(CC#Cc1ccc2c(c1)[C@]1(C(=O)N2)[C@H](C(=O)O)[C@H]2C(=O)O[C@H](c3ccccc3)[C@H](c3ccccc3)N2[C@@H]1c1ccc(O)cc1)C(=O)OC", "not met"],
  ["[N-]=[N+]=Nc1ccccc1[C@H]1OC(c2ccc(OCCCO)cc2)=N[C@@]1(Cc1ccccc1)C(=O)O", "not met"],
  ["COc1ccc(C(O)C2C=CC3C(=O)NC(=O)C3N2Nc2ccccn2)cc1 (configuration not stated)", "met"],
  ["CCCC=C(CCC)[C@@H](NS(=O)(=O)c1cccs1)c1ccc(C(=O)OC)cc1", "met"]
]}

Identify whether the reported z-score of the following molecule is -0.3 or greater: CN1C2C=C(CCCO)C(C3C(=O)N(C(N)=O)C(=O)C32)C1c1ccc(CN2CCCC2)cc1 (configuration not stated)
not met

API: above_or_equal(metric=z-score, cutoff=-0.3) for item CC(C)C[C@@H]1NC(=O)[C@H]2C[C@@H](C(=O)NCCCCCCN)[C@@H](c3ccc(O)cc3)N2C1=O
met

hey, is z-score for this one >= -0.3? COC(=O)C(CC#Cc1ccc2c(c1)[C@]1(C(=O)N2)[C@H](c2ccc(O)cc2)N2[C@H](c3ccccc3)[C@H](c3ccccc3)OC(=O)[C@H]2[C@@H]1C(=O)Nc1nc2ccccc2s1)C(=O)OC
not met
